Source: patent US20130323786A1

molecular target: LINGO-1 (human) (UniProt Q96FE5); test: ELISA
measured endpoint: ELISA Signal
Just the number.

- binder: "Li62 variant F10 Fab (VH CDR3 SEQ ID NO:26) (Fab, V domains shown) VH: EVQLLESGGGLVQPGGSLRLSCAASGFTFSIYPMFWVRQAPGKGLEWVSWIGPSGGITKYADSVKGRFTISRDNSKNTLYLQMNSLRAEDTATYYCARESHIDRYFDLWGRGTLVTVSS VL: DIQMTQSPSFLSASVGDSVAITCRASQDISRYLAWYQQRPGKAPKLLIYDASNLQTGVPSRFSGSGSGTDFTFTITSLQPEDFGTYYCQQYDTLHPSFGPGTTVDIK"
  ELISA Signal: 3
- binder: "Li62 variant C10 Fab (VH CDR3 SEQ ID NO:29) (Fab, V domains shown) VH: EVQLLESGGGLVQPGGSLRLSCAASGFTFSIYPMFWVRQAPGKGLEWVSWIGPSGGITKYADSVKGRFTISRDNSKNTLYLQMNSLRAEDTATYYCAREGYYDWYFDLWGRGTLVTVSS VL: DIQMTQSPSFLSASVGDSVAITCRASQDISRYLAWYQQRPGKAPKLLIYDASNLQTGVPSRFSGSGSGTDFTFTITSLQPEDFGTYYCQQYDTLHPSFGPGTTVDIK"
  ELISA Signal: 3

Consider now this further binder.
Exercise: Report measured ELISA Signal; entry is Li62 variant C10 Fab (VH CDR3 SEQ ID NO:33) (Fab, V domains shown) VH: EVQLLESGGGLVQPGGSLRLSCAASGFTFSIYPMFWVRQAPGKGLEWVSWIGPSGGITKYADSVKGRFTISRDNSKNTLYLQMNSLRAEDTATYYCAREGQFDWYFDLWGRGTLVTVSS VL: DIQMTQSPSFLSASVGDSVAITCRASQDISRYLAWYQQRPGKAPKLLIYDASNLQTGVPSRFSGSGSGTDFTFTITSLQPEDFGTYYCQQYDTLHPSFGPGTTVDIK
Solution: 3
